Molecular target: CSF1R (Homo sapiens, UniProt P07333)
Sequence (P07333 539-972 limits assumed): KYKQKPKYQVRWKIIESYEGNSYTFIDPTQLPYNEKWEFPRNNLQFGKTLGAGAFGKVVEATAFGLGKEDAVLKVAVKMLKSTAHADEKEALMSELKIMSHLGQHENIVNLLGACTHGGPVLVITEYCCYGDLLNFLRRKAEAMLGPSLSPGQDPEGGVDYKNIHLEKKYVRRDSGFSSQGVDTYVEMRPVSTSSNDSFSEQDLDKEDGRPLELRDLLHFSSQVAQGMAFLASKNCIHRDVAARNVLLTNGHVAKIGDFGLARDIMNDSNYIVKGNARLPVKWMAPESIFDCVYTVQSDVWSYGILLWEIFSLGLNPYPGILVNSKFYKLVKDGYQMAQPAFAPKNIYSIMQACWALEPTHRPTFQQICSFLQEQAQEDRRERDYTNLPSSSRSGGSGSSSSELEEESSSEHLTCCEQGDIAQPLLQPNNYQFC
Assay: CSF1R enzymatic inhibition, TR-FRET-based LANCE Ultra assay
Format: biochemical
Conditions: single 8-point titrations, ATP concentration 25 µM, read-out: Enz. IC50
readout-name: IC50 (nM)
Form entry: value (nM) — number only.

Solved cases (2 shown):
[[record]]
compound = "COc1ccc(-n2cc(-c3cc4c(N(C)CC5CCOCC5)ncnc4[nH]3)nn2)cc1 [Compound 21b]"
unit_spec = "nM"
recorded_measurement = 3

[[record]]
compound = "CN(CC1CCOCC1)c1ncnc2[nH]c(-c3cn(Cc4cccnc4)nn3)cc12 [Compound 27b]"
unit_spec = "nM"
recorded_measurement = 1.8


Next compound, IC50 to be filled in.
Which IC50 is reported for this compound? Cc1ccc(-n2cc(-c3cc4c(N(C)Cc5cccc(C)c5)ncnc4[nH]3)nn2)cc1 [Compound 20a]
28.2

* * *

assay: Caco-2 permeability assay; type: in vitro ADME; settings: human; Caco-2 cell assay
readout-name: Papp A→B (×10⁻⁶ cm/s)
Form entry: value (×10⁻⁶ cm/s) — number only.

Which Papp A→B is reported for this compound? Cc1cccc(CN(C)c2ncnc3[nH]c(-c4ccc(CO)cc4)cc23)c1
0.69

* * *

assay: MDCK permeability assay; format: in vitro ADME, canine; conditions: dog; MDCK cell monolayer, A-B direction
# Lookup of reported Papp A→B keyed by entry
Form entry: value (×10⁻⁶ cm/s) — number only.

Solved cases (2 shown):
[[record]]
compound = "Cc1cccc(CN(C)c2ncnc3[nH]c(-c4cn(Cc5cccnc5)nn4)cc23)c1 [Compound 27a]"
recorded_measurement = 1.27

[[record]]
compound = "COc1ccc(-n2cc(-c3cc4c(N(C)CC5CCOCC5)ncnc4[nH]3)nn2)cc1 [Compound 21b]"
recorded_measurement = 10.7


Next compound, Papp A→B to be filled in.
Which Papp A→B is reported for this compound? Cc1ccc(Cn2cc(-c3cc4c(N(C)CC5CCOCC5)ncnc4[nH]3)nn2)cc1 [Compound 25b]
10

* * *

molecular target: CSF1R (Homo sapiens, UniProt P07333); test: CSF1R enzymatic IC50, Z-LYTE assay platform; format: biochemical; details: Z-LYTE CSF1R IC50 curve
Sequence (P07333 20-972): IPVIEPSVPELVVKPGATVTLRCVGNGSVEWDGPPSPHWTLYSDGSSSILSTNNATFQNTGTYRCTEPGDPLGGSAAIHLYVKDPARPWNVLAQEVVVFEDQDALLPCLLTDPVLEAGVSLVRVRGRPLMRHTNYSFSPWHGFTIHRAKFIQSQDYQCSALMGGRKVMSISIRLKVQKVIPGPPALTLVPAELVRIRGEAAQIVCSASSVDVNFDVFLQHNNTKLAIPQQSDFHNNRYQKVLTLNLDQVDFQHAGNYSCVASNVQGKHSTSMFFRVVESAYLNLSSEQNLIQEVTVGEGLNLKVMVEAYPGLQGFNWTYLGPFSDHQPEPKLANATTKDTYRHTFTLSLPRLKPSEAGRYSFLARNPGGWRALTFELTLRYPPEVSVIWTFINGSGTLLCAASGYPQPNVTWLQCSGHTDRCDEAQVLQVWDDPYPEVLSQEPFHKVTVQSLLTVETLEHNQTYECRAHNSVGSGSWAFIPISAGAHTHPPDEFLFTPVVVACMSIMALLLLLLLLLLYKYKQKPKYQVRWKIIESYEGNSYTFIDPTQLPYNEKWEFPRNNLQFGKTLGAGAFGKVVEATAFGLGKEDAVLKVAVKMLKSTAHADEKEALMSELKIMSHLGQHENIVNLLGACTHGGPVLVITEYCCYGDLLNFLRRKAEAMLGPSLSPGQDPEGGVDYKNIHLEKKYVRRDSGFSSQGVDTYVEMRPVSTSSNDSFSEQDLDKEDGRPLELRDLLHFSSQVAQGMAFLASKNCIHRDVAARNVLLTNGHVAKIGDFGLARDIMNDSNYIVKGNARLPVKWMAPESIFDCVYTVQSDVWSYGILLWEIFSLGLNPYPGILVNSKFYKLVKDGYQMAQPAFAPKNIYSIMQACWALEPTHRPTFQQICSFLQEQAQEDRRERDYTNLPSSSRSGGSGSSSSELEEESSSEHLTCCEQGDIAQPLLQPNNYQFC
readout-name: Hill coefficient

[[record]]
compound = "COc1ccc(-n2cc(-c3cc4c(N(C)CC5CCOCC5)ncnc4[nH]3)nn2)cc1 [Compound 21b]"
readout_name = "Hill coefficient"
recorded_measurement = 0.913

[[record]]
compound = "Cc1ccc(Cn2cc(-c3cc4c(N(C)CC5CCOCC5)ncnc4[nH]3)nn2)cc1 [Compound 25b]"
readout_name = "Hill coefficient"
recorded_measurement = 0.981

[[record]]
compound = "Cc1cccc(CN(C)c2ncnc3[nH]c(-c4cn(Cc5cccnc5)nn4)cc23)c1 [Compound 27a]"
readout_name = "Hill coefficient"
recorded_measurement = 0.903


Next compound, Hill coefficient to be filled in.
Param readout= Hill coefficient; system= CSF1R (Homo sapiens, UniProt P07333); entry= FC(F)(F)c1ccc(CNc2ccc(Cc3c[nH]c4ncc(Cl)cc34)cn2)cn1 [PLX-3397, pexidartinib, reference compound] ; returns value.
1.18
